- Assay notes: Toxicity liver stage against HepG2, at 10uM
- Format: cell-based
- Design: test concentration 10 uM, cell line HepG2-A16-CD81EGFP
- Condition notes: human, HepG2-A16-CD81EGFP cells; read-out: INHIBITION
Listing of recorded cytotoxicity at 10 µM by entry.
The figure you give is taken to be in %; do not add the unit.

Worked cases, cytotoxicity at 10 µM given:
• CC(C)Oc1ccc(CC2=N[C@](C)(CO)CO2)cc1 = 16.3
• O=S(=O)(NCc1ccnc(-n2ccnc2)c1)c1cncc(F)c1 = 1.28
• C[C@H](NC(=O)c1cnc(-c2ccccc2)nc1O)C(N)=O = 7.06
• O=C(c1cscn1)N1CCc2c(COCC3CC3)cncc2C1 = -105
• N#Cc1ccnc(N2CCN(CC(O)c3ccccc3Cl)CC2)c1 (stereo not drawn) = 1.7
• CS(=O)(=O)N1C[C@H]2CC[C@@H](C1)N(C(=O)CCn1cnc3ccccc31)C2 = 4.11

API: the following record is the query input.
# input Would you kindly share the measured cytotoxicity at 10 µM for O=C(Cn1nc(C(F)(F)F)c(Br)c1C1CC1)N1CCOCC1 ?
# output -0.614
